# Lookup of reported yeast fitness keyed by entry
B1: tRNA (parent)
chain: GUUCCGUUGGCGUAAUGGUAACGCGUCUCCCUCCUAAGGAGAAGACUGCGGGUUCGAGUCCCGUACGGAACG

Variants of: B1
Assay: yeast fitness relative to wild type (ratio to wild type); higher = fitter; tRNA-Arg(CCU), competitive growth, 37 C, YPD
Variants at the floor of the assay were thinned out.
Give your answer as a number; write no unit.

variant-string	yeast fitness
C30G A43C C62U	0.533
C4U U16C C34A A42U	0.726
A15U G58C C66U	0.631
C11U U16A U64A	0.514
A15U C31U G67A	0.565

Next item in the queue.
The value of yeast fitness measured for the variant C5A C22G A65C turned out to be 0.582
